molecular target: EPHB1 (UniProt P54762); assay: phosphorylation enrichment, bacterial display (enrichment ratio); higher = better substrate or ligand; peptides without Tyr show the background;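 also: 11-residue human phosphosite peptides and single-mutation variants displayed on the E. coli surface, counted by deep sequencing, each peptide's frequency after selection divided by its frequency in the unselected input library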;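 also: frequency after pTyr selection over input frequency; kinase dosed for 20-30% of maximal phosphorylation in three min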
Sequence (P54762 whole entry, looked up): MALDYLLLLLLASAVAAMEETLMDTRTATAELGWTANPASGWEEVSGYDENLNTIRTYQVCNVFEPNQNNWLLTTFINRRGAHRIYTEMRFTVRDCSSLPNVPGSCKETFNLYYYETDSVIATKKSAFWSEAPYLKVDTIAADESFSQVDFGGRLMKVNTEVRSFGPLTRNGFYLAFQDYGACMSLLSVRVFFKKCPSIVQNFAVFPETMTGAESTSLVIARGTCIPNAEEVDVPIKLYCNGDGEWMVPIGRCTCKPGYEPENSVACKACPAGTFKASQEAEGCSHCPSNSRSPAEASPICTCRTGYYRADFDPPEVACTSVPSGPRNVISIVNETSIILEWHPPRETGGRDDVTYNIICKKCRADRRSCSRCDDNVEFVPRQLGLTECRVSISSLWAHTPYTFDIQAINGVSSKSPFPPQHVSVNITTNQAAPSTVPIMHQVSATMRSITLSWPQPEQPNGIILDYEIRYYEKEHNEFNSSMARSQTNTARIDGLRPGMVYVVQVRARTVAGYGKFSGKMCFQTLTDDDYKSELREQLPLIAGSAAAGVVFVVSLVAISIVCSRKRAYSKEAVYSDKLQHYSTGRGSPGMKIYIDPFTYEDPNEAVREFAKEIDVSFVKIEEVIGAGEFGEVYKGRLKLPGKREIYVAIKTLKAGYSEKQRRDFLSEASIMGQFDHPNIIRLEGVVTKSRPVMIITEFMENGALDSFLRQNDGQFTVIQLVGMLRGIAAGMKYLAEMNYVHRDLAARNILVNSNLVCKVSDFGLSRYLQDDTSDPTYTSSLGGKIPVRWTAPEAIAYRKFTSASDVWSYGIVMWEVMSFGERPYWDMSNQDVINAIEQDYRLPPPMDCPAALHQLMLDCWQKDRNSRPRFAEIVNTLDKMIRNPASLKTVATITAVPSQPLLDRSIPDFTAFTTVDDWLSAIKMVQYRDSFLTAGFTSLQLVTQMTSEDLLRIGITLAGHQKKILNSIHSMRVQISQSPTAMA
metricName: phosphorylation enrichment

Below, each entry is followed by its recorded phosphorylation enrichment result.
LSNPAYRLLLA [DDR1_Y513]; 0.945
RNNTEYVRDIG [MUSK_Y577_I575T]; 0.422
VDTGVYAVPPP [BCAR1_Y410_S407T]; 8.36

Prompt: Name the recorded phosphorylation enrichment for ISTAGYSFPEL [EDAR_Y406_I408F] .
Response: 0.526

Prompt: Name the recorded phosphorylation enrichment for AFPVSYSSSGA [RET_Y687] .
Response: 0.455

Prompt: Name the recorded phosphorylation enrichment for PSAEGYQDVRD [ABLIM1_Y439] .
Response: 0.656

Prompt: Name the recorded phosphorylation enrichment for DAANNYARGHF [TUBA3E_Y103_S101N_YF] .
Response: 0.382

Prompt: Name the recorded phosphorylation enrichment for PVGDVYKKKGL [NMNAT1_Y55_A54V] .
Response: 0.451

Prompt: Name the recorded phosphorylation enrichment for SEEVTYATLTF [CLEC12B_Y7] .
Response: 0.98
